- protocol.text: Total clearance in CL57BL/6J mouse at 0.25 mg/kg, iv measured upto 24 hrs by LCMS/MS analysis
- Assay type: ADME, organism-based
- experimental.context: in vivo

{"compound.structure": "CC(C)(C)[C@H](NC(=O)[C@H](Cc1ccncc1)NC(=O)CNC(=O)CC[C@H](NS(=O)(=O)c1ccc(Cl)c(C(F)(F)F)c1)C(=O)O)C(=O)Nc1ccc(C(=O)N2CCN(C(=O)[C@@H](N)CCCN)CC2)cc1", "quantity.unit": "mL/min/kg", "clearance": 41.3}
{"compound.structure": "CC(C)(C)[C@H](NC(=O)[C@H](Cc1ccncc1)NC(=O)CNC(=O)CC[C@H](NS(=O)(=O)c1ccc(Cl)c(C(F)(F)F)c1)C(=O)O)C(=O)Nc1ccc(C(=O)O)cc1", "quantity.unit": "mL/min/kg", "clearance": 200}

###

- protocol.text: Volume of distribution at steady state in cynomolgus monkey at 1 mg/kg, iv
- Type: ADME, organism-based, Macaca fascicularis
- experimental.context: in vivo, read-out: Vdss

{"compound.structure": "CC(C)(C)[C@H](NC(=O)[C@H](Cc1ccncc1)NC(=O)CNC(=O)CC[C@H](NS(=O)(=O)c1ccc(Cl)c(C(F)(F)F)c1)C(=O)O)C(=O)Nc1ccc(C(=O)N2CCC(C(=O)N[C@H](CCCCN)C(=O)N3CC[C@H](N)C3)CC2)cc1", "quantity.unit": "L/kg", "Vd": 0.145}

###

- target.of.assay: CYP3A (Homo sapiens, UniProt P08684+P20815+P24462+Q9HB55)
- protocol.text: Time dependent inhibition of CYP3A in human liver microsomes using midazolam as substrate at 10 uM by LC-MS/MS analysis relative to control
- Assay type: ADME, Microsome
- experimental.context: probe midazolam, read-out: TDI
reported.endpoint: inhibition at 10 µM (%)

{"compound.structure": "CC(C)(C)[C@H](NC(=O)[C@H](Cc1ccncc1)NC(=O)CNC(=O)CC[C@H](NS(=O)(=O)c1ccc(Cl)c(C(F)(F)F)c1)C(=O)O)C(=O)Nc1ccc(C(=O)N2CCC(C(=O)N[C@H](CCCCN)C(=O)N3CC[C@H](N)C3)CC2)cc1", "reported.endpoint": "inhibition at 10 µM", "quantity.unit": "%", "reported.result": -5.2}

###

- target.of.assay: CYP3A (Homo sapiens, UniProt P08684+P20815+P24462+Q9HB55)
- protocol.text: Time dependent inhibition of CYP3A in human liver microsomes using testosterone as substrate at 10 uM by LC-MS/MS analysis relative to control
- Assay type: ADME, Microsome
- experimental.context: probe testosterone, read-out: TDI
reported.endpoint: inhibition at 10 µM (%)

{"compound.structure": "CC(C)(C)[C@H](NC(=O)[C@H](Cc1ccncc1)NC(=O)CNC(=O)CC[C@H](NS(=O)(=O)c1ccc(Cl)c(C(F)(F)F)c1)C(=O)O)C(=O)Nc1ccc(C(=O)N2CCC(C(=O)N[C@H](CCCCN)C(=O)N3CC[C@H](N)C3)CC2)cc1", "target.of.assay": "CYP3A (Homo sapiens, UniProt P08684+P20815+P24462+Q9HB55)", "reported.result": -13.9}

###

- target.of.assay: CYP2B6 (Homo sapiens)
- Sequence (P20813 whole entry): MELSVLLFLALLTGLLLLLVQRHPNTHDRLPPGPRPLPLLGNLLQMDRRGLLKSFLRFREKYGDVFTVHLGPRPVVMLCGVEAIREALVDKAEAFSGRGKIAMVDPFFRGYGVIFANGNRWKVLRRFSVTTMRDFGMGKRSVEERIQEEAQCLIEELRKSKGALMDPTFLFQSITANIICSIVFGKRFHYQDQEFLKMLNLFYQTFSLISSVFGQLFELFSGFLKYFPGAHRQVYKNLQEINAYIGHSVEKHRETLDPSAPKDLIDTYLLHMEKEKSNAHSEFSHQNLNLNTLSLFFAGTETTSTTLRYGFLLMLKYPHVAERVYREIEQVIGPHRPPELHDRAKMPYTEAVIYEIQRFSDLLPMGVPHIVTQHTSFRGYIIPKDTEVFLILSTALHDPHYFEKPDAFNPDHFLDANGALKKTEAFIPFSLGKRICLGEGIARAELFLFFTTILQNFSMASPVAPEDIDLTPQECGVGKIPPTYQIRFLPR
- protocol.text: Inhibition of CYP2B6 in human liver microsomes at 10 uM by LC-MS/MS analysis relative to control
- Assay type: ADME, Microsome

{"compound.structure": "CC(C)(C)[C@H](NC(=O)[C@H](Cc1ccncc1)NC(=O)CNC(=O)CC[C@H](NS(=O)(=O)c1ccc(Cl)c(C(F)(F)F)c1)C(=O)O)C(=O)Nc1ccc(C(=O)N2CCC(C(=O)N[C@H](CCCCN)C(=O)N3CC[C@H](N)C3)CC2)cc1", "target.of.assay": "CYP2B6 (Homo sapiens)", "quantity.unit": "%", "inhibition at 10 µM": -6.6}
